target: Adenosine receptor A2b (Homo sapiens); assay: Displacement of [3H]DPCPX from human adenosine A2B receptor expressed in HEK293 cell membranes at 1 uM incubated for 30 mins by scintillation counting method; conditions: Cell membrane, filed as antagonist
Endpoint name: inhibition
// return the numeric value with its unit appended

Worked cases, answers included:
{"Compound": "CCOC(=O)C1=C(C)N(C)C(=O)NC1c1ccsc1 (racemic)", "Endpoint name": "inhibition", "Readout value": "53%"}
{"Compound": "CCOC(=O)C1=C(C)NC(=O)NC1c1cccs1 (racemic)", "Endpoint name": "inhibition", "Readout value": "41%"}
{"Compound": "CC1=C(C(=O)OCc2ccccc2)C(c2cccs2)NC(=S)N1 (racemic)", "Endpoint name": "inhibition", "Readout value": "45%"}

**Query** Name the recorded inhibition of the compound listed here: COC(=O)C1=C(C)NC(=S)NC1c1ccoc1 (racemic)
**Result** 48%

**Query** Name the recorded inhibition of the compound listed here: CCCOC(=O)C1=C(C)NC(=S)NC1c1ccoc1 (racemic)
**Result** 45%

**Query** Name the recorded inhibition of the compound listed here: CC1=C(C(=O)OC(C)(C)C)C(c2ccsc2)NC(=O)N1 (racemic)
**Result** 47%

**Query** Name the recorded inhibition of the compound listed here: CC1=C(C(=O)NC(C)C)C(c2cccs2)NC(=O)N1 (racemic)
**Result** 40%

###

target: Adenosine receptor A2b (Homo sapiens); test: Displacement of [3H]DPCPX from human adenosine A2B receptor expressed in HEK293 cell membranes at 1 uM incubated for 30 mins by scintillation counting method; conditions: Cell membrane
Label t for high-side inhibition (at or above 2%) and f for low-side inhibition (below it).

A selection of reference data follows.
{"Molecule": "CC1=C(C(=O)OCC(C)C)C(c2ccsc2)NC(=O)N1C (racemic)", "Assigned class": "f"}
{"Molecule": "COC(=O)C1=C(C)N(C)C(=O)NC1c1ccco1 (racemic)", "Assigned class": "t"}
{"Molecule": "CCSC(=O)C1=C(C)NC(=O)NC1c1ccoc1 (racemic)", "Assigned class": "f"}
{"Molecule": "COC(=O)C1=C(C)N(C)C(=O)NC1c1cccs1 (racemic)", "Assigned class": "t"}

Okay, next one:
**Query** Could you please find out whether CC1=C(C(=O)OC(C)(C)C)C(c2cccs2)NC(=O)N1 (racemic) has inhibition that meets 2% or exceeds it?
**Result** t

###

biological target: Adenosine receptor A2a (Homo sapiens); assay: Displacement of [3H]ZM2421385 from adenosine A2A receptor expressed in human HeLa cell membranes at 1 uM incubated for 30 mins by scintillation counting method; conditions: Cell membrane
# maps each entry to its inhibition
Write the answer as a number in %, unit excluded.

{"Compound": "CC1=C(C(=O)NC(C)C)C(c2cccs2)NC(=O)N1 (racemic)", "Assay target": "Adenosine receptor A2a (Homo sapiens)", "Units symbol": "%", "Readout value": 22}
{"Compound": "CC1=C(C(=O)OCc2ccccc2)C(c2ccsc2)NC(=O)N1 (racemic)", "Assay target": "Adenosine receptor A2a (Homo sapiens)", "Units symbol": "%", "Readout value": 21}
{"Compound": "CC1=C(C(=O)NC(C)C)C(c2ccoc2)NC(=O)N1 (racemic)", "Assay target": "Adenosine receptor A2a (Homo sapiens)", "Units symbol": "%", "Readout value": 1}
{"Compound": "COC(=O)C1=C(C)NC(=O)NC1c1cccs1 (racemic)", "Assay target": "Adenosine receptor A2a (Homo sapiens)", "Units symbol": "%", "Readout value": 1}
{"Compound": "CCC(C)OC(=O)C1=C(C)NC(=O)NC1c1ccco1 (racemic)", "Assay target": "Adenosine receptor A2a (Homo sapiens)", "Units symbol": "%", "Readout value": 1}

**Query** Name the recorded inhibition of the compound listed here: CC1=C(C(=O)SC(C)C)C(c2ccoc2)NC(=O)N1 (racemic)
**Result** 2

**Query** Name the recorded inhibition of the compound listed here: CCOP(=O)(OCC)C1=C(C)NC(=O)NC1c1ccoc1 (racemic)
**Result** 8

**Query** Name the recorded inhibition of the compound listed here: CCSC(=O)C1=C(C)NC(=O)NC1c1cccs1 (racemic)
**Result** 8

**Query** Name the recorded inhibition of the compound listed here: COC(=O)C1=C(C)N(C)C(=O)NC1c1cccs1 (racemic)
**Result** 49

**Query** Name the recorded inhibition of the compound listed here: CC1=C(C(=O)OC(C)(C)C)C(c2cccs2)NC(=S)N1 (racemic)
**Result** 7

**Query** Name the recorded inhibition of the compound listed here: CC1=C(C(=O)OC(C)C)[C@H](c2ccco2)NC(=S)N1
**Result** 6
